Provenance of the data: PubChem BioAssay (NCI)

System: NCI-H460 lung
Assay overview: NCI tumour cell line growth inhibition, 48 h
Assignment: determine reported TGI for the given compounds.

In the examples that follow, each entry is paired with its recorded TGI.
1. CCOC(=O)c1cn(CC)c(=O)n2c1nc1ccccc12 :: > 100 µM
2. NNc1nnc(CCCCCCCCc2nnc(NN)n2N)n1N :: > 100 µM
3. CCOC(=O)c1c2c(n(-c3ccc(C)cc3)c1C)-c1ccccc1C(=O)C2(C(=O)OCC)C(=O)OCC :: 98.5 µM

Each compound below has a reported value. Please supply its TGI.
1. COc1cc(-c2nccc3[nH]c(-c4ccc5cc[nH]c5c4)nc23)cc(OC)c1OC
2. CC(=O)c1ccc(Nc2c3c(nc4ccccc24)CCCC3)cc1
3. Cn1c(CNc2ccc(-c3n[nH]c(=S)n3C)cc2)n[nH]c1=S
4. CCOC(=O)/C(=C/c1ccccn1)C(=O)c1ccccc1
5. C(=Nc1nc(SCc2ccccc2)nc2[nH]ncc12)c1cccs1
6. COC1(OC)CCc2c(sc3ncnc(Nc4cccc(Br)c4)c23)C1

1: 1.04 µM; 2: > 66.8 µM; 3: > 100 µM; 4: > 62.8 µM; 5: > 100 µM; 6: > 100 µM

# get_value(readout='TGI', item= `COc1ccc(OC)c2sc(N3C(=O)/C(=C/c4cccc(Oc5ccccc5)c4)N=C3c3ccccc3)nc12` )
> 100 µM
